Molecular target: T1, TRAF2, Q12933
T1 chain: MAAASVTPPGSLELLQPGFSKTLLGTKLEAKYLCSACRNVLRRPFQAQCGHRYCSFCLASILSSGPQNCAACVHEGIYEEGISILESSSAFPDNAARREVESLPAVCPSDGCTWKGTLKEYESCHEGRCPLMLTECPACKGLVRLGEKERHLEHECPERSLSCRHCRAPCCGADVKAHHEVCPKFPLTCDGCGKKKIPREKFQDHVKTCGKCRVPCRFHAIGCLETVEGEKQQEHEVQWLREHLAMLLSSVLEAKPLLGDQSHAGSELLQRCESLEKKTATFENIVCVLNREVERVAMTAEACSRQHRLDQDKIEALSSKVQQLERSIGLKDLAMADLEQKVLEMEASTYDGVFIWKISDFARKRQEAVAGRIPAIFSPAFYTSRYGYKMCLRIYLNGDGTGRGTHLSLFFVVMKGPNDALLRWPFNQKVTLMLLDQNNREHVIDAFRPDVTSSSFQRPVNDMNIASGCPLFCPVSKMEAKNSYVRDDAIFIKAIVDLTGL
Experiment: median log2 fold change of GCK-ALFA target abundance (FLAG IP / Myc IP barcode read proportion) (log2 ratio); each designed protein is fused to an ALFA-tag nanobody in HEK293 cells to bring the named protein to FLAG-tagged glucokinase (GCK); Myc marks an untargeted standard; higher = target protein stabilised (more abundant)
Conditions: target protein: 3xFLAG-MCP-GCK-ALFA reporter; HEK293 landing pad (RPLP)
Whole data set: some 1,800 sequences, median “median log2 fold change of GCK-ALFA target abundance (FLAG IP / Myc IP barcode read proportion)” near 0.14, cut for the lowest 2% near -0.84. Many of the other results were omitted from the sample, so the lowest values are more common in it than they were.
Measured quantity: median log2 fold change

Binder: traf2_out_6_156_2410 (protein) MVDAIFKEALEKIEKEIKKLSEASEEKKIKYISNIAGTVYRALQQLRDAGASLAEIEAFAKKLKAEIEKKLKEAGLPEDTINLVLSSINAVFDVAIADAK
Obs value: 0.298
//
Binder: traf2_out_14_149_1260 (protein) SATEERRRALREALELFERAAELLAAAIAAGSNDLDVEELRRLLEEAREILSKQGFVLGSLLAIEELLEEAEELTEEDLRRLLELAERAAESLEVLAEML
Obs value: 0.0539
